Target: T1, murine Tissue Factor in murine brain extracts (murine, UniProt P20352 29-294)
T1 sequence (looked up): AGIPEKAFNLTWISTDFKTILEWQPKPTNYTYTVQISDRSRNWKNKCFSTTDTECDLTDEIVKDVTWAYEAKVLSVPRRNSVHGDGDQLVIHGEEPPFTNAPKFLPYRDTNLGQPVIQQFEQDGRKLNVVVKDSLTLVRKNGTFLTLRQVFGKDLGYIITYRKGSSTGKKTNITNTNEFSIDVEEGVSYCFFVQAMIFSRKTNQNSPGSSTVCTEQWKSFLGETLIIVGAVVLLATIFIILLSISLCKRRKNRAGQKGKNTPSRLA
Assay: cell-based or functional assay
ENDPOINT: EC50 Conc. (ug/ml), inhibition of fibrin clot formation in human plasma (µg/mL)
Reply with just the number (in µg/mL).

• PHD126 Fab (Fab, V domains shown) VH: QVQLVQSGAEVKKPGESLKISCKGSYSFSNYWIGWVRQMPGKGLEWMGFIDPDDSDTNYSPSFQGQVTISADKSISTAYLQWSSLKASDTAMYYCARALYMQGGSFDSWGQGTLVTVSS VL: DIELTQPPSVSVAPGQTARISCSGDNLGSYYVSWYQQKPGQAPVLVIYRDTDRPSGIPERFSGSNSGNTATLTISGTQAEDEADYYCQSYDYGVSNQVFGGGTKLTVLG = 0.23
• PHD103 Fab (Fab, V domains shown) VH: QVQLVQSGAEVKKPGESLKISCKGSGYSFSNSWIAWVRQMPGKGLEWMGGIIGPGHSYTKYSPSFQGQVTISADKSISTAYLQWSSLKASDTAMYYCARINMGYFDYWGQGTLVTVSS VL: DIELTQPPSVSVAPGQTARISCSGDSLGLKKFVSWYQQKPGQAPVLVIYDDSNRPSGIPERFSGSNSGNTATLTISGTQAEDEADYYCGTYDQTIGHDVVFGGGTKLTVLG = 63.3

Let's switch to this binder now.
INPUT: # query: EC50 Conc. (ug/ml), inhibition of fibrin clot formation in human plasma of entry PHD127 Fab (Fab, V domains shown, Human HuCAL Fab; 8 (VH) and 9 (VL) for PHD127 are inferred from the order of the words and must be checked against the listing) VH: QVQLVQSGAEVKKPGESLKISCKGSYSFTNSWISWVRQMPGKGLEWMGIIDPDDSYTSYSPSFQGQVTISADKSISTAYLQWSSLKASDTAMYYCARGAGYGRMFGDVWGQGTLVTVSS VL: DIELTQPPSVSVAPGQTARISCSGDNLGSYYASWYQQKPGQAPVLVIYQDDNRPSGIPERFSGSNSGNTATLTISGTQAEDEADYYCGAYTYSTSWVFGGGTKLTVLG
OUTPUT: 0.82
